# experiment: RP, Thermo Scientific Acclaim RSLC 120 C18, 100 × 2.1 mm, 2.2 µm, 30 °C, 0.2 mL/min, estimated dead time 1.1 min; A: 90% water + 10% methanol + 0.01% formic acid + 5 mM ammonium formate, pH 3.61; B: methanol + 0.01% formic acid + 5 mM ammonium formate, pH 3.61; gradient (min/%B) 0/1 1/1 2/39 13/99.9 15/99.9 15.1/1 20.1/1
# assay.context: stereoisomer not certain
Heads up, the class ranges for LC retention time are lower level = under 5 min, middle level = from 5 min up to 8 min, upper level = 8 min and over

compound="CCC(NC)C(=O)c1ccc2c(c1)OCO2 (stereo unspecified)" assigned_class="lower level"
compound=O=C(O)c1cc(N=Nc2ccc(O)c(C(=O)O)c2)ccc1O assigned_class="middle level"
compound=CC1CCN(CCCC(=O)c2ccc(F)cc2)CC1 assigned_class="middle level"
compound=O=C(NC(=O)c1ccccc1Cl)Nc1ccc(OC(F)(F)F)cc1 assigned_class="upper level"
compound=Clc1ccc(CSC(Cn2cncn2)=Nc2ccc(Cl)cc2Cl)cc1 assigned_class="upper level"

Any idea which band CCOP(=S)(OCC)SCn1c(=O)oc2cc(Cl)ccc21 is in?
upper level

Lab note: which band did CC(CN(C)C)CN1c2ccccc2Sc2ccc(C#N)cc21 (stereo unspecified) land in?
middle level

Where would CCOC(=O)c1ccccc1S(=O)(=O)NC(=O)Nc1nc(Cl)cc(OC)n1 land among the classes by reported LC retention time?
upper level

Consider CC(C)(C)NCC(O)COc1ccccc1C#N (stereo unspecified) . To which LC retention time class does it belong?
lower level

Consider CCCCCCCCCCCCOCCOCCOCCOCCO . To which LC retention time class does it belong?
upper level

Which bin should I file CNC(=C[N+](=O)[O-])NCCSCc1ccc(C[N+](C)(C)[O-])o1 [Ranitidine-N-oxide] under?
lower level

State the class of the compound shown: Cc1nnc2n1-c1sc(Br)cc1C(c1ccccc1Cl)=NC2
upper level

Assign a category based on measured LC retention time for COCCOCCOCCOC and give only the class name.
lower level

Just checking, what class would you give CCC(Oc1ccc(F)c(C(F)(F)F)c1)C(=O)NCc1ccccc1 (stereo unspecified) [Beflubutamide] here?
upper level

Please let me know in which category the item O=C1c2ccccc2C(=O)C1C(=O)C(c1ccccc1)c1ccc(Cl)cc1 (stereo unspecified) belongs.
upper level

Returns: class label. Input: CCN1CCCC1CNC(=O)c1cc(S(N)(=O)=O)ccc1OC (stereo unspecified) [Sulpiride]
lower level

Which bin, given its LC retention time, does COc1ccc(CCN)cc1OC occupy?
lower level

The entry to classify is CCCC(Cn1cncn1)c1ccc(Cl)cc1Cl (stereo unspecified) ; which class holds it?
upper level

Class (by measured LC retention time) for Cc1cccc(C)c1N(Cn1cccn1)C(=O)CS(C)=O (stereo unspecified)
middle level
